measured_target: rat brain N-type calcium channel subunits (α1B+α2δ+β1b cDNA subunits) (Rattus norvegicus)
Construct: expressed in transfected cells; host or cells: HEK 293
Sequence (Q02294 whole entry): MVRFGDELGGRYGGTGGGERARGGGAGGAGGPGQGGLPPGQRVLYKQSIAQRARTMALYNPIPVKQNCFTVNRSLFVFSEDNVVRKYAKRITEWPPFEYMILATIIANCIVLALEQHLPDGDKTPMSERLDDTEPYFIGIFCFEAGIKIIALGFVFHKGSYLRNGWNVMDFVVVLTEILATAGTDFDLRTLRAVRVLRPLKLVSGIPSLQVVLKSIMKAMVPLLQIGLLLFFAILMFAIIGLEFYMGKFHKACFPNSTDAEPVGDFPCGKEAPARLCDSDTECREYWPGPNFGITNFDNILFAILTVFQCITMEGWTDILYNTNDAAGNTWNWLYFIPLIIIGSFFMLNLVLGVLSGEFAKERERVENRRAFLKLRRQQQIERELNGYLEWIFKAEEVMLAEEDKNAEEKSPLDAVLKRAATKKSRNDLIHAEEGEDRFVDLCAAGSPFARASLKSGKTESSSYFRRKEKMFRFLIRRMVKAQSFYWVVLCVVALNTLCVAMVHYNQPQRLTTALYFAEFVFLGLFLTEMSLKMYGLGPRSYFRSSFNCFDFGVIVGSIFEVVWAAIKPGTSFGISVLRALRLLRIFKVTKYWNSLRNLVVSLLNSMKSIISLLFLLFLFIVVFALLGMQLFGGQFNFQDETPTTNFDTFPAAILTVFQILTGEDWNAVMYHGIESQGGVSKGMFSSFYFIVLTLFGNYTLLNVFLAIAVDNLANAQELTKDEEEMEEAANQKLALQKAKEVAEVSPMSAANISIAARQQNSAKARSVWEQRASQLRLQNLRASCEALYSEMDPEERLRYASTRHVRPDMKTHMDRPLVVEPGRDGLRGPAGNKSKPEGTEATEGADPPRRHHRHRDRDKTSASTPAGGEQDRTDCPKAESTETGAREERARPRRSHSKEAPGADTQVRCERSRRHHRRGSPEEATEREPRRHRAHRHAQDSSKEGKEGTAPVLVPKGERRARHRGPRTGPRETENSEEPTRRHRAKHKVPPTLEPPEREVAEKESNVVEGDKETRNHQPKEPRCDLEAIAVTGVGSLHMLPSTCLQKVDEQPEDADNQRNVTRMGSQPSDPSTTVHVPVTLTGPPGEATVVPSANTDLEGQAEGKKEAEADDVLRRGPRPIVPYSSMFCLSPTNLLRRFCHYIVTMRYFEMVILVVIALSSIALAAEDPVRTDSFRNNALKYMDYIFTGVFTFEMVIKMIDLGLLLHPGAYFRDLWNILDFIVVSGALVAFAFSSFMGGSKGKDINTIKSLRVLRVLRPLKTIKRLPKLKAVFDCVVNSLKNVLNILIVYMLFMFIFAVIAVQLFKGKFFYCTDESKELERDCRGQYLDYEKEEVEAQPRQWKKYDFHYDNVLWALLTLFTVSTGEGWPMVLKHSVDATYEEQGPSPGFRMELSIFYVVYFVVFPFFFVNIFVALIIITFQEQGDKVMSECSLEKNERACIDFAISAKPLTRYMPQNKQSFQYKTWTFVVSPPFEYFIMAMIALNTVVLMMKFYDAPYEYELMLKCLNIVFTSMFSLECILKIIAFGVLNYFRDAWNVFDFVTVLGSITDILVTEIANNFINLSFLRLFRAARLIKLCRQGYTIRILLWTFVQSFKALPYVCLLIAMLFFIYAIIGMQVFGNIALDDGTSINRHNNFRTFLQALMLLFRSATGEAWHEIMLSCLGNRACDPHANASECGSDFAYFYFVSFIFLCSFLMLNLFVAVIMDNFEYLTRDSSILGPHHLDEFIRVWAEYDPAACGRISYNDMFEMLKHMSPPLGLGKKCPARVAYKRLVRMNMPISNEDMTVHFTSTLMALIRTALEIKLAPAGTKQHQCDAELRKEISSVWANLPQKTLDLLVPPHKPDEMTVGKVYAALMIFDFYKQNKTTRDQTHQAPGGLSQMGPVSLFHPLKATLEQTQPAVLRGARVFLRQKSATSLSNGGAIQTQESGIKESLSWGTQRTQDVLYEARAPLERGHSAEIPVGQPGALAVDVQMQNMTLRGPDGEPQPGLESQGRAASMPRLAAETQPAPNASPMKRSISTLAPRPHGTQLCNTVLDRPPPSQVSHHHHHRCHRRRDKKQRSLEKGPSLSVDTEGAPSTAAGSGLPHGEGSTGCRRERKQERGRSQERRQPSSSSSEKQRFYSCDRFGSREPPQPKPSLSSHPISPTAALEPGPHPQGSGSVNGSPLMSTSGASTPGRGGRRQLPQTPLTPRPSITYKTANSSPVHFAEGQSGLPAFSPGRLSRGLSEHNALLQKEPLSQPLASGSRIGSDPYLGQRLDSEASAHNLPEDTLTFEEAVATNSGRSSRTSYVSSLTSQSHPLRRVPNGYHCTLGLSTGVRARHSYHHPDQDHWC
Sequence (P54290 25-944 partner limits assumed): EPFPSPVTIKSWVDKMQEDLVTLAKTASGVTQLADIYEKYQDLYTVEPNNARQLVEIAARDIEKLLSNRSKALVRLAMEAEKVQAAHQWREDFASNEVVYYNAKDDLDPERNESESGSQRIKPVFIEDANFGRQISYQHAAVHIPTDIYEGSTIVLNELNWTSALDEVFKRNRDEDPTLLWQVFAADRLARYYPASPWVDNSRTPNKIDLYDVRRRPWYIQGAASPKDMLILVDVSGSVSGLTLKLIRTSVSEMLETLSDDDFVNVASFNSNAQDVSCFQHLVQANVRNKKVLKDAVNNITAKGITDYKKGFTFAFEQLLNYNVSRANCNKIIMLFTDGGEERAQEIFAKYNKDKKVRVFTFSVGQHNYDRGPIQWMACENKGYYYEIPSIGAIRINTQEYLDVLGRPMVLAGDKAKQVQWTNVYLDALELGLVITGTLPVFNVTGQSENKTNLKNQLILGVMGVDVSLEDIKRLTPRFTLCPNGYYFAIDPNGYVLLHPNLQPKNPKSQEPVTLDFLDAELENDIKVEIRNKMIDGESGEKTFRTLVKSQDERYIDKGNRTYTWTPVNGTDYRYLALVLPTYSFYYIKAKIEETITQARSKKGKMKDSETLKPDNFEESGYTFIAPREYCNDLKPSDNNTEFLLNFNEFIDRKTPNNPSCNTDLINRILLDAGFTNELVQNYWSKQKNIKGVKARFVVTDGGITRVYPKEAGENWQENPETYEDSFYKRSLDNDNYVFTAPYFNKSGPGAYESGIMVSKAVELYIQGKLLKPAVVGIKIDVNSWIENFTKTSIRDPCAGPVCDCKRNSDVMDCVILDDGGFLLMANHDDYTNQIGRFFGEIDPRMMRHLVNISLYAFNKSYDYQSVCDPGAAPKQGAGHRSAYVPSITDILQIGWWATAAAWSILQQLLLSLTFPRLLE
Sequence (P54290 945-1091 partner limits assumed): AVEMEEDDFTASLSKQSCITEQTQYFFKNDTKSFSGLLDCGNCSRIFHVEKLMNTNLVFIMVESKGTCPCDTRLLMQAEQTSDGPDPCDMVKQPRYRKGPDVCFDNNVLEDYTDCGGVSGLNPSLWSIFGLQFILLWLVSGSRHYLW
Sequence (P54283 whole entry partner): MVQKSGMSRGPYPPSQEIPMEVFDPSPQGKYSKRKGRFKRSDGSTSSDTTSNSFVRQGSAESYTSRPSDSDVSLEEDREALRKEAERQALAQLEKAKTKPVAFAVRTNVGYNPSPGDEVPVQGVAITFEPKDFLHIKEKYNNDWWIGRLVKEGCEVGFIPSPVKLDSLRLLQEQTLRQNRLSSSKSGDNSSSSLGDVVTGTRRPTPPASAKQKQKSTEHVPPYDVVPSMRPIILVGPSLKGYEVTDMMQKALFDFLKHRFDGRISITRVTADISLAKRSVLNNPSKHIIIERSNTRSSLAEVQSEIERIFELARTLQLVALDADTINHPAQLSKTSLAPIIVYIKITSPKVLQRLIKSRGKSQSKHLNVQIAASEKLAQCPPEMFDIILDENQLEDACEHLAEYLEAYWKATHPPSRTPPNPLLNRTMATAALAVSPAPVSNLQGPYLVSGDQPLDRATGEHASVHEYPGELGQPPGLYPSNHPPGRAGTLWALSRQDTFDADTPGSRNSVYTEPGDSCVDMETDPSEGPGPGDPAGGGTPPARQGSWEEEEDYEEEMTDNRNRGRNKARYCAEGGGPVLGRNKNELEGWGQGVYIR
measurement_description: N-type calcium channel block, whole cell patch clamp in transfected HEK 293 cells
Format: cell-based
measurement_context: −80 mV, read-out: IC50 @ −80 mV
value_type: pIC50
Please note pIC50 is a logarithmic value: minus log10 of concentration in mol/L. Answer with that number alone.

Worked set:
- compound: "O=C(CN1CCN(C(c2ccccc2)c2ccccc2)CC1)Nc1nc2ccc(F)cc2s1 [Compound 1]"
  measured_target: "rat brain N-type calcium channel subunits (α1B+α2δ+β1b cDNA subunits) (Rattus norvegicus)"
  pIC50: 6.11
- compound: "COc1ccc2nc(NC(=O)CN3CCN(C(c4ccccc4)c4ccccc4)CC3)sc2c1 [Compound 19]"
  measured_target: "rat brain N-type calcium channel subunits (α1B+α2δ+β1b cDNA subunits) (Rattus norvegicus)"
  pIC50: 5.50
- compound: "O=C(CN1CCN(C(c2ccc(F)cc2)c2ccc(F)cc2)CC1)Nc1nc2ccc(Cl)cc2s1 [Compound 12]"
  measured_target: "rat brain N-type calcium channel subunits (α1B+α2δ+β1b cDNA subunits) (Rattus norvegicus)"
  pIC50: 5.34
- compound: "O=C(CN1CCN(C(c2ccccc2)c2ccccc2)CC1)Nc1nc2ccc(OC(F)(F)F)cc2s1 [Compound 18]"
  measured_target: "rat brain N-type calcium channel subunits (α1B+α2δ+β1b cDNA subunits) (Rattus norvegicus)"
  pIC50: 5.54
- compound: "Cc1ccc(-c2csc(NC(=O)CN3CCN(C(c4ccc(F)cc4)c4ccc(F)cc4)CC3)n2)cc1 [Compound 10]"
  measured_target: "rat brain N-type calcium channel subunits (α1B+α2δ+β1b cDNA subunits) (Rattus norvegicus)"
  pIC50: 5.45
- compound: "O=C(CN1CCN(C(c2ccc(F)cc2)c2ccc(F)cc2)CC1)Nc1nc2ccc(F)cc2s1 [Compound 2]"
  measured_target: "rat brain N-type calcium channel subunits (α1B+α2δ+β1b cDNA subunits) (Rattus norvegicus)"
  pIC50: 6.04

// next item, pIC50 requested
IN: Returns the measured pIC50 for the input compound. Input: Cc1cnc(NC(=O)CN2CCN(C(c3ccccc3)c3ccccc3)CC2)s1 [Compound 5]
OUT: 5.71
